- SUBJECT_OF_TEST: Aurora kinase A (Homo sapiens) (UniProt O14965)
- Sequence (O14965 whole entry): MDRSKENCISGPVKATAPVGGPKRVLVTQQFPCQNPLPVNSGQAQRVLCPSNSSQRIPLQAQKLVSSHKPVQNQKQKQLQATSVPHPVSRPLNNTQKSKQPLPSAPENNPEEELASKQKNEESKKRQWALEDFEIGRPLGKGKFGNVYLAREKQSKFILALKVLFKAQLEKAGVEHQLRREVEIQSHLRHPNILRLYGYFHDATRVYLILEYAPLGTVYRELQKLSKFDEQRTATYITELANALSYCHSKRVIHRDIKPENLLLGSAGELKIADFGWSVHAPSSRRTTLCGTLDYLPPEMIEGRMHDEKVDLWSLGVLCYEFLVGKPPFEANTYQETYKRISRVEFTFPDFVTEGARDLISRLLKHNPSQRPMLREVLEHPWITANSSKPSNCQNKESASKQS
- TEST_CONDITIONS: Compound concentration 20.0 uM
- Description: Thermal Shift Assay. Domain: start/stop: E122-S403
Residues, ends and D or L forms follow the SMILES beside them.
Quick rule: ΔTm of at least -2 °C means TRUE, below that means FALSE.

Below, 2 compounds whose answers are already recorded.
Exercise: Could you verify whether the entry CC1(C)CC[C@]2(C(=O)O)CC[C@]3(C)C(=CC[C@@H]4[C@@]5(C)C=C(O)C(=O)C(C)(C)[C@@H]5CC[C@]43C)[C@@H]2C1 shows ΔTm of no less than -2 °C?
Key: FALSE

Exercise: Does ΔTm meet or surpass -2 °C for COc1ccccc1S(=O)(=O)Nc1ccc2c(c1)CN(C)C(=O)N2 ?
Key: FALSE

Further cases:
Exercise: Answer whether ΔTm of Oc1ccc(-c2c(-c3ccccc3)nn3c(C(F)(F)F)cc(C(F)(F)F)nc23)cc1 is greater than or equal to -2 °C.
Key: TRUE

Exercise: Is ΔTm at least -2 °C? Consider CCn1c(=O)c(C)cn(Cc2nnc(-c3ccc(F)c(OC)c3F)s2)c1=O
Key: FALSE

Exercise: Check this compound for ΔTm at or above -2 °C: CC(C)(C)NS(=O)(=O)c1ccc(NC(=O)[C@H](Cc2ccccc2)NC(=O)c2ccc(F)cc2)cc1
Key: TRUE

Exercise: Would you say COc1cc(C(=O)N2C[C@H](N)CC[C@@H]2C)cc2nc(-c3cc4cccnc4n3CC3CC3)n(C)c12 shows ΔTm at minimum -2 °C?
Key: TRUE

Exercise: Is the recorded value of ΔTm equal to or greater than -2 °C for this compound? CCc1ccccc1NC(=O)CSC(=O)NNC(=O)[C@H](Cc1c[nH]c2ccccc12)NC(=O)OC(C)(C)C
Key: TRUE

Exercise: Given the entry CC(=O)N[C@@H](CC(C)C)C(=O)N[C@@H](CCC(=O)O)C(=O)N[C@H](C(=O)N[C@H](C=O)CC(=O)O)C(C)C (Ac-LEVD-aldehyde) , answer whether its ΔTm meets or surpasses -2 °C.
Key: TRUE
